# System: HEK293T (UBE3A T485A transfected, BAR Wnt reporter)
# assay_method_text: Wnt reporter firefly/Renilla luciferase ratio relative to plate median (fold (linear ratio)); higher = more Wnt/beta-catenin reporter activation
# experimental_context: concentration: 1 uM; 24 h
Over roughly 1,100 compounds, “Wnt reporter firefly/Renilla luciferase ratio relative to plate median” has its median near 1.1; the highest 2% begin near 1.6. Shown is part of a subset that was picked to be rich in the highest values.
reported_endpoint: Wnt reporter firefly/Renilla luciferase ratio
One number for each entry.

Some molecules with recorded Wnt reporter firefly/Renilla luciferase ratio:
molecule	value
O=C(c1ccc(O)cc1O)c1ccc(O)cc1O [2,2',4,4'-Tetrahydroxybenzophenone]	1.33
[Cl-].c1ccc(C[n+]2cccc3ccccc32)cc1 [1-Benzylquinolinium chloride]	0.903
[Cl-].[Li+]	0.926
CC(=O)O	1.09
CCCCCCC(C=O)=Cc1ccccc1	0.906
CCCOC(=O)c1ccc(O)cc1	1.02
C=C(C)C(=O)OCCC(F)(F)C(F)(F)C(F)(F)C(F)(F)C(F)(F)C(F)(F)F [Tridecafluorohexylethyl methacrylate]	1.12
C=CCc1ccc(O)c(OC)c1	1.13
C[C@]12CC[C@@H]3c4ccc(O)cc4CC[C@H]3[C@@H]1CC[C@@H]2O	0.932
Cc1oc2c(NC(=O)c3c(Cl)cccc3Cl)cccc2c1C(C)(C)O	1.14

Please state, for each entry, its recorded Wnt reporter firefly/Renilla luciferase ratio.
1. O=C([O-])c1[nH]n(-c2ccc(S(=O)(=O)[O-])cc2)c(=O)c1/N=N/c1ccc(S(=O)(=O)[O-])cc1.[Na+].[Na+].[Na+]
2. C#C[C@]1(O)CC[C@H]2[C@@H]3CCC4=CC(=O)CC[C@@H]4[C@H]3CC[C@@]21CC
3. C[C@]12CC[C@@H]3c4ccc(O)cc4CC[C@H]3[C@@H]1CC[C@H]2O
4. CCCCC(CC)COC(=O)CCCCC(=O)OCc1ccccc1 (stereo not drawn) [Benzyloctyl adipate]
5. CS(=O)(=O)O.Cc1nccn1-c1ccc(Sc2cccc(C3(C(N)=O)CCOCC3)c2)cc1
6. CC(C)(c1cc(Br)c(O)c(Br)c1)c1cc(Br)c(O)c(Br)c1

**Result**
0.877
1.09
1.04
1.03
0.73
0.95

Please state, for each entry, its recorded Wnt reporter firefly/Renilla luciferase ratio.
1. CC/C(=C(\c1ccccc1)c1ccc(OCCN(C)C)cc1)c1ccccc1.O=C(O)CC(O)(CC(=O)O)C(=O)O [Tamoxifen citrate]
2. O=C(NO)C1(NS(=O)(=O)c2ccc(Oc3ccc(F)cc3)cc2)CCOCC1

**Result**
[0.964, 0.992]
